- System: Hepatocyte
- EXPERIMENT_NOTES: Intrinsic clearance in rat hepatocytes assessed per 10^6 cells
- Assay type: ADME, cell-based
Give measured CLH for each item. Keep answers brief.
Field format: number, assumed uL/min/10^6 cells, no unit text.

Dear colleague, I am looking for the recorded CLH of the following compound: COc1c(C(C)(C)C)cc(-n2ccc(=O)[nH]c2=O)c2ncc(-c3ccc(NS(C)(=O)=O)cc3)cc12
20

Another compound: COc1c(CC(F)(F)F)cc(-n2ccc(=O)[nH]c2=O)c2ncc(-c3ccc(NS(C)(=O)=O)cc3)cc12
3.7

Another compound: COc1c(C(F)(F)F)cc(-n2ccc(=O)[nH]c2=O)c2ncc(-c3ccc(NS(C)(=O)=O)cc3)cc12
1.8

Another compound: COc1c(C2(C(F)F)CC2)cc(-n2ccc(=O)[nH]c2=O)c2ncc(-c3ccc(NS(C)(=O)=O)cc3)cc12
1.7

###

- System: Hepatitis C virus
- EXPERIMENT_NOTES: Antiviral activity against Hepatitis C virus genotype 1b clinical isolate RO-10 expressing NS5B assessed as inhibition of viral replication after 4 days by luciferase reporter gene assay
- Format: functional, organism-based, Hepacivirus hominis
- SETUP_CONDITIONS: genotype 1b clinical isolate RO-10, 96 h
Give measured pEC50 for each item. Keep answers brief.
Scale: negative log10 of molar concentration, which is what pEC50 denotes.

Dear colleague, I am looking for the recorded pEC50 of the following compound: COc1ccc(-c2cc(C(C)(C)C)c(OC)c3cc(-c4ccc(NS(C)(=O)=O)cc4)cnc23)c(=O)[nH]1
9.47

Another compound: COc1ccc(-c2cc(C(C)(C)C)c(OC)c3cc(N4CC[C@H](CNS(C)(=O)=O)C4)cnc23)c(=O)[nH]1
8.78

###

Give measured Ratio EC50 for each item. Keep answers brief.
- Tested on: Hepatitis C virus
- EXPERIMENT_NOTES: Ratio of EC50 for Hepatitis C virus genotype 1a H77 in presence of human serum to EC50 for Hepatitis C virus genotype 1a H77
- Assay type: functional, Hepacivirus hominis
I'd appreciate a reply containing only the number, no unit.

Dear colleague, I am looking for the recorded Ratio EC50 of the following molecule: COc1c(C(C)(C)C)cc(-c2ccc[nH]c2=O)c2ncc(-c3ccc(NS(C)(=O)=O)cc3)cc12
0.8

Another molecule: COc1c(C(C)(C)C)cc(-n2ccc(=O)[nH]c2=O)c2ncc(-c3ccc(NS(C)(=O)=O)cc3)cc12
1.7

Another molecule: COc1c(C(C)(C)C)cc(N2CCC(=O)NC2=O)c2ncc(-c3ccc(NS(C)(=O)=O)cc3)cc12
1.7

Another molecule: COc1ccc(-c2cc(C(C)(C)C)c(OC)c3cc(N4CC[C@H](CNS(C)(=O)=O)C4)cnc23)c(=O)[nH]1
0.6

###

- EXPERIMENT_NOTES: Oral bioavailability in Wistar/Han rat at 30 mg/kg of amorphus MBP compound
- Format: ADME, organism-based
- SETUP_CONDITIONS: in vivo
PARAMETER: bioavailability

Dear colleague, I am looking for the recorded bioavailability of the following compound: COc1ccc(-c2cc(C(C)(C)C)c(OC)c3cc(-c4ccc(NS(C)(=O)=O)cc4)cnc23)c(=O)[nH]1
26%

###

- EXPERIMENT_NOTES: AUC (0 to infinity) in Wistar/Han rat at 30 mg/kg, po of compound as aqueous suspension
- Assay type: ADME, organism-based
- Parameters: time infinity, dose 30 mg/kg, route oral
- SETUP_CONDITIONS: plasma
PARAMETER: AUC(0-inf) (ng·h/mL)
Field format: number, assumed ng·h/mL, no unit text.

Dear colleague, I am looking for the recorded AUC(0-inf) of the following compound: COc1ccc(-c2cc(C(C)(C)C)c(OC)c3cc(N4CC[C@H](CNS(C)(=O)=O)C4)cnc23)c(=O)[nH]1
37000
